B1: C9orf9 (parent)
chain: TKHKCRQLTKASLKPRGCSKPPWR

Variants of: B1
Experiment: protein stability index of a GFP-peptide fusion (GPS, HEK-293T) (PSI 1-6); higher = more stable;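 note: lentivirally expressed fusions sorted by FACS into six bins by GFP to DsRed ratio, PSI derived from sequencing read proportions per bin multiplied by bin number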
Conditions: c terminus: a fixed tail appended
Class label 1: protein stability index at least 3. Class label 0: protein stability index below 3.

q: Is protein stability index at least 3? Consider TKHKCRQLTRASLKPRGCSKPPWR [K10R]
a: label 1

q: Record TKHKCRQLTKASLKPRACSKPPWR [G17A] ; criterion: protein stability index no lower than 3. Met?
a: label 0

q: Entry TKHKSRQLTKASLKPRGCSKPPWR [C5S] : is its protein stability index no less than 3?
a: label 0

q: Could you please find out whether TKHGCRQLTKASLKPRGCSKPPWR [K4G] has protein stability index that meets 3 or exceeds it?
a: label 0

q: Does protein stability index meet or surpass 3 for TKHKCRQLQKASLKPRGCSKPPWR [T9Q] ?
a: label 1

q: Threshold query (protein stability index >= 3) on TKHKCRQLTKASLKPRGCCKPPWR [S19C]
a: label 0

q: Does protein stability index meet or surpass 3 for TKHKCRQLTKASLKPRGCSYPPWR [K20Y] ?
a: label 1

q: Decide: protein stability index of TKHKCRQLTKASLKPRGCSKPPYR [W23Y] >= 3?
a: label 1

q: Is protein stability index at least 3? Consider TKHKCKQLTKASLKPRGCSKPPWR [R6K]
a: label 0

q: Can TKHKCRQLTKASLKPRGCWKPPWR [S19W] be said to have protein stability index at or above 3?
a: label 0

q: Does protein stability index meet or surpass 3 for TKHMCRQLTKASLKPRGCSKPPWR [K4M] ?
a: label 0

q: Given the entry TKHKCRQLTKASLKPRMCSKPPWR [G17M] , answer whether its protein stability index meets or surpasses 3.
a: label 0

q: # check: protein stability index of TKHICRQLTKASLKPRGCSKPPWR [K4I] is greater than or equal to 3
a: label 0

q: # check: protein stability index of TKHYCRQLTKASLKPRGCSKPPWR [K4Y] is greater than or equal to 3
a: label 0

q: Please tell me: is the variant TKHHCRQLTKASLKPRGCSKPPWR [K4H] at or over 3 in terms of protein stability index?
a: label 0
